Assay: Quantitative High-Throughput drug screen in 47 multiple myeloma cell lines against the NCATS MIPE library collection: KHM11_PLB cell viability assay (AID 1918962); further: nearly all actives have a fitted effect of over 35% in size
Settings: KHM11 myeloma cell viability, CellTiter-Glo ATP luminescence, 48 h; series mostly up to 45.8 µM
Records with an inconclusive call do not appear. The source made the active and inactive calls. The call rests on the fitted dose curve; in most records, active means well fitted cell-killing curve with a large enough effect; inconclusive means small, poorly fitted or top-dose-only effect, or effect the other way; inactive means no such curve, though single readings can be large or run the other way.
Outcomes: class 1 = active, class 0 = inactive

>>> labelclass("NC(=O)c1cccc(-c2cccc(OC(=O)NC3CCCCC3)c2)c1")
"class 0"
>>> labelclass("O=S(=O)(O)CCSSCCS(=O)(=O)O")
"class 0"
>>> labelclass("CCN1CCN(C(=O)N[C@H](C(=O)N[C@@H]2C(=O)N3C(C(=O)O)=C(CSc4nnnn4C)CS[C@@H]23)c2ccc(O)cc2)C(=O)C1=O")
"class 0"
>>> labelclass("COc1ccc([C@@H]2CNC(=O)C2)cc1OC1CCCC1")
"class 1"
>>> labelclass("C=CCNC1=C2C[C@@H](C)C[C@H](OC)[C@@H](O)[C@@H](C)C=C(C)[C@H](OC(N)=O)[C@@H](OC)C=CC=C(C)C(=O)NC(=CC1=O)C2=O")
"class 1"
>>> labelclass("CCCCCCCCCCCC(CC1OC(=O)C1CCCCCC)OC(=O)C(CC(C)C)NC=O (centres undefined)")
"class 0"
>>> labelclass("Oc1cc2c(cc1O)C1c3ccc(O)c(O)c3OCC1(O)C2 (centres undefined)")
"class 0"
>>> labelclass("COc1cc(OC)cc(-c2ccc3ncc4ccc(=O)n(-c5ccc(N6CCNCC6)c(C(F)(F)F)c5)c4c3c2)c1")
"class 1"
>>> labelclass("CC(=O)SCC(Cc1ccccc1)C(=O)NCC(=O)OCc1ccccc1 (centres undefined)")
"class 1"

Recorded values, source PubChem BioAssay (NCATS).
